I'd be grateful if you could share measured MFI (solvent ratio) for these entries.
# ASSAY SYSTEM: T1, HLA-A*02:01 (human)
# T1 construct: whole, on cells; Empty class I molecule on TAP-deficient T2-A24 cells; detected with anti-HLA-A02 antibody BB7.2
# ASSAY OVERVIEW: T2-A24 MHC class I stabilization, flow cytometry, anti-HLA-A02 BB7.2-FITC, peptide 100 ug/mL

Solved cases below.
BINDER | RESULT
YLLLEPEGII [As416_10] | 2.8 ratio to solvent
ATGLHLSVLF [As76_10] | 0.9 ratio to solvent
LMDINGCAAI [As280_10] | 3.1 ratio to solvent

Count: 4. Required value per item: MFI (solvent ratio).
1. MLEAGAEANL (read as 39 from its place between 38 and 40) [As271_10]
2. AAQPEICYQLL [As301_11]
3. HVLMHMMLEA [As265_10]
4. IQYVLKVTSV [As289_10]

-- reply
["1 ratio to solvent", "2.6 ratio to solvent", "2 ratio to solvent", "1.2 ratio to solvent"]

-- ask Bench note: what MFI (solvent ratio) did DFGKLKAIL [As29_9] show?
-- reply 1 ratio to solvent
